biological target: Cytochrome P450 1A2 (Homo sapiens, UniProt P05177); experiment: Inhibition of heterologously expressed human cytochrome P450 1A2.; format: ADME
Sequence (P05177 whole entry): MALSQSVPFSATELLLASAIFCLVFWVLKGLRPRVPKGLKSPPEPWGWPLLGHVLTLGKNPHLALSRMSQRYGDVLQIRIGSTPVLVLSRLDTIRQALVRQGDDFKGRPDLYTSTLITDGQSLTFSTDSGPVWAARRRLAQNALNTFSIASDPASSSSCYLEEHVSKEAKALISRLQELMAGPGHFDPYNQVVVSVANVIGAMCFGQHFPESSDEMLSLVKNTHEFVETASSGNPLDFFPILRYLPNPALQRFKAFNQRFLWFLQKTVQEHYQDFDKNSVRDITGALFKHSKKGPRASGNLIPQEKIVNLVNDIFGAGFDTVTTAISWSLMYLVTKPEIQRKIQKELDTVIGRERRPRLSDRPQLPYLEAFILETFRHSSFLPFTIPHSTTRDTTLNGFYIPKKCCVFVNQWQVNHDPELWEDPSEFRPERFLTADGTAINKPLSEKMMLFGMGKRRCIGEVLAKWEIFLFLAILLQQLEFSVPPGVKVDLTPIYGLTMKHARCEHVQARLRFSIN
readoutLabel: pIC50
Reminder that pIC50 means the negative base-10 logarithm of the concentration expressed in mol/L.

Consider the following illustrative entries.
* COc1cc2c(cc1C(F)(F)F)N(C(=O)Nc1cccnc1)CC2 | 7.70
* COc1cc2c(cc1C(F)(F)F)N(C(=O)Nc1ccc(-c3cccnc3)nc1)CC2 | 5.15
* COc1cc2c(cc1C(F)(F)F)N(C(=O)Nc1cc(F)cc(-c3cccnc3)c1)CC2 | 4.55
* COc1cc2c(cc1C(F)(F)F)N(C(=O)Nc1cncc(-c3ccccc3)c1)CC2 | 5.59
* COc1cc2c(cc1C(F)(F)F)N(C(=O)Nc1cc3c(c(-c4cccnc4)c1)OCC3)CC2 | 5.70

Prompt: What value of measured pIC50 is listed for `COc1cc2c(cc1C(F)(F)F)N(C(=O)Nc1ccc(C)c(-c3cccnc3)c1)CC2` ?
Completion: 5.15

Prompt: Thanks! And `COc1cc2c(cc1C(F)(F)F)N(C(=O)Nc1cncc(-c3cnccc3C)c1)CC2` ?
Completion: 6.70

Prompt: Thanks! And `COc1cc2c(cc1C(F)(F)F)N(C(=O)Nc1ccc(Cl)c(-c3cccnc3)c1)CC2` ?
Completion: 4.14

Prompt: Thanks! And `COc1cc2c(cc1C(F)(F)F)N(C(=O)Nc1cccc(-c3cccnc3)c1)CC2` ?
Completion: 5.40

Prompt: Thanks! And `COc1cc2c(cc1C(F)(F)F)N(C(=O)Nc1cncc(-c3ccncc3)c1)CC2` ?
Completion: 4.30

* * *

Catalogue of log10 Ki values
Biological target: 5-hydroxytryptamine receptor 2C (Homo sapiens, UniProt P28335)
Sequence (P28335 whole entry): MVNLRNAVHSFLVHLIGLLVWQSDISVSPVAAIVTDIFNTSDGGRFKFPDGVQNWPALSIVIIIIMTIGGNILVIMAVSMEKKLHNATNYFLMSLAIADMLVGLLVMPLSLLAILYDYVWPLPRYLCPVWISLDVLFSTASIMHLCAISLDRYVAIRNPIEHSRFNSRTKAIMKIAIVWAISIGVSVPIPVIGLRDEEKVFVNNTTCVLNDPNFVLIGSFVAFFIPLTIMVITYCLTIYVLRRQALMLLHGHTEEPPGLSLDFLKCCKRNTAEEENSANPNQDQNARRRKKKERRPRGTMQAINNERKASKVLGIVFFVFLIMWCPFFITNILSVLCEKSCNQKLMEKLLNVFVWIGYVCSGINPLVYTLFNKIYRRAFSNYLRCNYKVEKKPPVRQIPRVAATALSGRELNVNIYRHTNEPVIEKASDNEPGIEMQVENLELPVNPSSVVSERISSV
Test: Binding affinity towards human cloned 5-hydroxytryptamine receptor 2C in HEK293 cells, using [3H]mesulergine as radioligand.
# values: log10(Ki), units nM

* CSc1cc2c(cc1C(F)(F)F)N(C(=O)Nc1cccc(-c3cccnc3)c1)CC2 | 0.20
* COc1cc2c(cc1C(F)(F)F)N(C(=O)Nc1ccc(C(C)(C)C)c(-c3cccnc3)c1)CC2 | 0.50
* COc1cc2c(cc1C(F)(F)F)N(C(=O)Nc1cncc(-c3ccccc3)c1)CC2 | 0.70
* COc1cc2c(cc1C(F)(F)F)N(C(=O)Nc1cncc(-c3cccnc3)c1)CC2 | -0.10
* COc1cc2c(cc1C(F)(F)F)N(C(=O)Nc1cncc(-c3cnccc3C)c1)CC2 | -0.40

Turning to the following compound.
Prompt: Look up log10 Ki with 5-hydroxytryptamine receptor 2C (Homo sapiens, UniProt P28335) for this compound: `COc1cc2c(cc1C(F)(F)F)N(C(=O)Nc1cc3c(c(-c4cccnc4)c1)OCC3)CC2`
Completion: -0.30
